Target: T1, Recombinant soluble CD59 comprising amino acids 1-76 with an 11 amino acid Ser/Gly linker and termin (human, terminal Cys reduced with TCEP and thiol-coupled to the PDEA-modified CM5 chip)
T1 construct: also called recombinant CD59; immobilised CD59
Experiment: SPR
Conditions: both partners purified
Parameter Measured: Kd (µM)
// return numeric value only (unit: µM, not printed)

INPUT: Given the entry AWEPWRLIYSKNDLPLVPC , report its measured Kd.
OUTPUT: 4.92
